The reported numbers originate from patent US20260234135A1.

Experiment: physchem
Settings: FaSSIF-V2, 37 °C, fassif, thermodynamic from solid
MEASURED PARAMETER: solubility at 2 h (µg/mL)
# number only, unit µg/mL dropped from output

Q: Bench note: what solubility at 2 h did [2H]C([2H])(Cc1nc(-c2ccccc2)oc1C)Oc1ccc(C[C@H](OC)C(=O)O)c2sccc12 [free acid Form B] show?
Ans: 280
